pIC50: −log10 of the molar value.
Several reports have described pIC50 for UniProt P00742; a selection of those results is presented here.

compound | assayedSystem | resultModifier | pIC50
N=C(N)c1ccc(CNC(=O)Cc2c(-c3ccccc3)ccc(NCCc3ccccc3)c2F)cc1 | UniProt P00742 | < | 4.52
CCCN(CCC)C(=O)[C@H]1CC[C@H](NC(=O)c2cc3cc(Cl)ccc3[nH]2)[C@H](NC(=O)c2nc3c(s2)CN(C)CC3)C1 | UniProt P00742 | = | 8.64
CN1CCc2nc(C(=O)N[C@@H]3C[C@@H](C(=O)N(C)C)CC[C@@H]3NC(=O)c3cnc4cc(Cl)ccc4c3)sc2C1 | UniProt P00742 | = | 8.39
CCN1CCN=C1c1ccc(C(=O)Nc2ccccc2C(=O)Nc2ccc(Cl)cn2)cc1 | UniProt P00742 | = | 7.19
CC(C)C[C@H](NC(=O)NCc1ccc(Cl)c(Cl)c1)C(=O)N[C@H](C(=O)N[C@@H](CCCN=C(N)N)C(=O)c1nccs1)C(C)C | UniProt P00742 | < | 4.70
CC(C)(C)CC(=O)N[C@H](Cc1ccccc1)C(=O)N1CCC[C@H]1C(=O)N[C@@H](CCCNC(=N)N)C(=O)c1nc2ccccc2o1.O=C(O)C(F)(F)F | UniProt P00742 | = | 6.96
COC(=O)C(Cc1cccc(C(=N)N)c1)C(/C=C/c1ccccc1)NC(=O)c1ccc(-c2ccccc2C)cc1 (stereo not drawn) | UniProt P00742 | = | 7.05
N=C(N)c1cccc(OCCC(=O)Nc2ccc(-c3ccccc3S(N)(=O)=O)cc2)c1 | UniProt P00742 | = | 8.19
CN(C(=O)[C@H]1Cc2ccccc2CN1C(=O)Cc1ccc(Cl)cc1)c1ccc(N2CCCCC2=O)cc1 | UniProt P00742 | = | 6.05
CC(C)Oc1cc(Cl)cc(C(=O)Nc2ccc(Cl)cn2)c1NC(=O)c1ccc(C(=N)N(C)C)cc1 | UniProt P00742 | = | 9.30
COC(=O)C(Cc1cccc(C(=N)N)c1)C(/C=C/c1ccccc1)NC(=O)c1cccc(C)c1 (stereo not drawn) | UniProt P00742 | = | 5.96
CC(CCc1ccccc1)Nc1c(F)c(Oc2cccc(C(=N)N)c2)nc(Oc2ccc(N(C)C)cc2C(=O)O)c1F (stereo in doubt; 19) | UniProt P00742 | = | 5.17
COc1ccc(N/C(=C\[N+](=O)[O-])N[C@H]2CCCCN(CC(=O)N3CCCC3)C2=O)cc1 | UniProt P00742 | = | 5.51
Cc1cc(C(=O)Nc2ccc(-c3ccccc3S(N)(=O)=O)cc2)n(-c2cc3ccccc3cc2C2=NCCN2)n1 | UniProt P00742 | = | 5.11
Cc1nn(-c2ccccc2)c(C)c1NC(=O)COC(=O)Cn1c(=O)oc2ccccc21 | UniProt P00742 | < | 3.70
CN(C)NCc1ccc(C(=O)Nc2ccc(Cl)cc2C(=O)Nc2ccc(Cl)cn2)cc1 | UniProt P00742 | = | 9.05
N=C(N)COc1cccc(CN2CC3C(NC(=O)c4ccc(Cl)s4)C=CC[C@H]3C2=O)c1 (stereo partly drawn) | UniProt P00742 | = | 6.92
CN1CCc2nc(C(=O)N[C@@H]3C[C@@H](C(=O)N(C)C)CC[C@@H]3NC(=O)c3cc4ccc(Cl)cc4cn3)sc2C1 | UniProt P00742 | = | 8.52
N=C(N)c1ccc(O)c(OCC(=O)Nc2ccc(C(=O)N3CCCC3)cc2)c1 | UniProt P00742 | = | 9.15
N=C(N)c1cccc(OCC(=O)Nc2ccc(C(=O)N3CCCC3C(=O)O)cc2)c1 (stereo not drawn) | UniProt P00742 | < | 5.00
COc1cc(C(=O)N2C[C@@H](n3cc(C4CC4)nn3)C[C@H]2C(=O)NCC(c2ccccc2)c2ccccc2)ccc1CN | UniProt P00742 | = | 4.51
Cc1cc(C(=O)Nc2ccc(-c3ccccc3CN)cc2)n(-c2ccc3cc(Cl)ccc3c2)n1 | UniProt P00742 | = | 7.41
N=C(NO)c1ccc(C(=O)Nc2ccccc2C(=O)Nc2ccc(Cl)cn2)cc1 | UniProt P00742 | = | 7.46
Cc1nccn1CC1CCN(C(=O)CCS(=O)(=O)c2ccc3cc(Cl)ccc3c2)CC1 | UniProt P00742 | = | 6.04
CN(C)C(=N)c1ccc(C(=O)Nc2ccc(Cl)cc2C(=O)Nc2ccc(Cl)cn2)c(N2CCOCC2)c1 | UniProt P00742 | = | 9.15
C[C@@]1(CO)C[C@@H](O)C[C@@]2(C)[C@@H]3CC[C@](C)(C(=O)O)C=C3CC[C@H]12 | UniProt P00742 | = | 6.66
N=C(N)c1ccc(CNC(=O)c2cc(NS(=O)(=O)Cc3ccccc3)ccc2Sc2ccccc2)cc1 | UniProt P00742 | < | 4.52
Nc1nc(-c2ccccn2)nn1C(=O)c1cccnc1 | UniProt P00742 | < | 5.30
CN(C(=O)[C@H]1CCCCN1C(=O)c1ccc(Cl)s1)c1ccc(N2CCCCC2=O)cc1 | UniProt P00742 | = | 4.00
CCN(CC)C(=O)c1cccc(-c2ccc3c(c2)[C@@H]2[C@@H](CCCCC(=N)N)C(=O)N(C(=O)OCCCc4ccccc4)[C@H]2C3)c1 | UniProt P00742 | = | 5.43
N=C(N)NCCC[C@@H](NC(=O)CNC(=O)[C@H](Cc1c[nH]c2ccccc12)NS(=O)(=O)Cc1ccccc1)C(=O)c1nccs1 | UniProt P00742 | = | 8.70
CC[C@@H](NC(=O)c1ccc(Cl)s1)C(=O)Nc1ccc(N2CCOCC2=O)cc1 | UniProt P00742 | = | 7.70
COc1ccc(NC(=N[C@H]2CCCCN(CC(=O)N3CCCC3)C2=O)NC(=O)c2ccc(F)c(F)c2)cc1 | UniProt P00742 | = | 6.57
